- subject_of_test: human recombinant adrenergic α2B receptor (Homo sapiens, UniProt P18089)
- Construct: expressed in transfected cells; host or cells: CHO-K1 cells
- Sequence (P18089 whole entry): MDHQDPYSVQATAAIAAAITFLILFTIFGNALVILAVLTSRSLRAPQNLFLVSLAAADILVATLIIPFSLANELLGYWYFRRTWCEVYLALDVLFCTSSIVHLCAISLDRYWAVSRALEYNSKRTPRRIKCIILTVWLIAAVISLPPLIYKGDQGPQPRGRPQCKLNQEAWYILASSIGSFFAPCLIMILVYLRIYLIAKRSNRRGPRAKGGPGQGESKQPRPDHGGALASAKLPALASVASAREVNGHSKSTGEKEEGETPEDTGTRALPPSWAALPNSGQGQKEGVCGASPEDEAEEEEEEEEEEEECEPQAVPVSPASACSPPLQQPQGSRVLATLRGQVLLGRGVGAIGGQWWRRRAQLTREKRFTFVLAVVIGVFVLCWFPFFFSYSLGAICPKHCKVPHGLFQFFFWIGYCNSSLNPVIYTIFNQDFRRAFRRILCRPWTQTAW
- assay_notes: Adrenergic alpha2B radioligand binding ([3H]Rauwolscine)
- setup_conditions: compound at 1 μM; read-out: Adrenergic (1 μM) α2B, percent inhibition of specific binding
outcome_measure: inhibition at 1 µM (%)
Field format: number, assumed %, no unit text.

CN1CCc2c(n(/C=C/c3ccccc3F)c3ccc(Cl)cc23)CC1 [Compound No. 83]    113
CN1CCc2c(n(CCc3ccc(Cl)cc3)c3ccc(Cl)cc23)CC1 [Compound No. 30]    100
CN1CCc2c(n(CC(O)c3ccccc3F)c3ccc(Cl)cc23)CC1 (stereo not drawn) [Compound No. 40]    101
CN1CCc2c(n(CC(O)c3ccc(F)c(F)c3)c3ccc(Cl)cc23)CC1 (stereo not drawn) [Compound No. 58]    10

# input compound: CN1CCc2c(n(CC(O)c3ccccc3)c3ccc(Cl)cc23)CC1 (stereo not drawn) [Compound No. 24] ; wanted: its inhibition at 1 µM
99
